Header: IC50 / DGKα (Homo sapiens) / multiple publications
Class assignment keyed on IC50, ranges Low: < 200 nM; Mid: ≥ 200 nM and < 1000 nM; High: ≥ 1000 nM

# input Dear colleague, I would appreciate it if you could identify the bin for CC[C@H]1CN(C(C)c2ccn3nc(C)cc3c2)[C@H](CC)CN1c1nc(=O)n(C)c2cc(CC#N)nn12 (some centres unmarked) and reply at your convenience.
# output Low

# input Dear colleague, I would appreciate it if you could identify the bin for CC[C@H]1CN(C(C)c2ccc3c(c2)OC(F)(F)O3)[C@H](CC)CN1c1cc(=O)n(C)c2cn(CC#N)nc12 (some centres unmarked) and reply at your convenience.
# output Mid

# input Dear colleague, I would appreciate it if you could identify the bin for CC#CCn1cc2c(n1)c(N1C[C@@H](CC)N(C(C)c3ccc4scnc4c3)C[C@@H]1C)cc(=O)n2C (some centres unmarked) and reply at your convenience.
# output Low

# input Dear colleague, I would appreciate it if you could identify the bin for CC[C@H]1CN(C(C)c2ccc3nc(C)sc3n2)[C@H](CC)CN1c1c(F)c(=O)n(C)c2cc(CC#N)nn12 (some centres unmarked) and reply at your convenience.
# output High

# input Dear colleague, I would appreciate it if you could identify the bin for Cc1nc2c(N3C[C@@H](C)N(C(c4ccc(Cl)cc4)c4ccc(Cl)cc4)C[C@@H]3C)nc3nncn3c2n1C[C@@H]1CCCO1 and reply at your convenience.
# output Low

# input Dear colleague, I would appreciate it if you could identify the bin for CC[C@@H]1CN(c2cc(=O)n(C)c3cn(CC#N)nc23)[C@@H](C)CN1C(C)c1ccc2cc(C)sc2n1 (some centres unmarked) and reply at your convenience.
# output Mid

# input Dear colleague, I would appreciate it if you could identify the bin for C[C@@H]1CN(c2nc3nncn3c3c2ncn3C[C@@H]2CCCO2)[C@@H](C)CN1C(c1ccc(Cl)cc1)C1CC(F)(F)C1 (some centres unmarked) and reply at your convenience.
# output Low

# input Dear colleague, I would appreciate it if you could identify the bin for CC[C@H]1CN(C(C)c2ccc(F)cc2OC(F)F)[C@H](CC)CN1c1cc(=O)n(C)c2cc(CC#N)nn12 (some centres unmarked) and reply at your convenience.
# output High

# input Dear colleague, I would appreciate it if you could identify the bin for CC[C@H]1CN(C(C)c2ccc(OCCOC)cc2)[C@H](CC)CN1c1cc(=O)n(C)c2cn(CC#N)nc12 (some centres unmarked) and reply at your convenience.
# output Low

# input Dear colleague, I would appreciate it if you could identify the bin for CC[C@H]1CN(C(C)c2ccc(COCCOC)cc2)[C@H](CC)CN1c1cc(=O)n(C)c2cn(CC#N)nc12 (some centres unmarked) and reply at your convenience.
# output Mid

# input Dear colleague, I would appreciate it if you could identify the bin for CC[C@H]1CN(C(C)c2ccc(OC)c(F)c2)[C@H](CC)CN1c1cc(=O)n(C)c2cn(CC#N)nc12 (some centres unmarked) and reply at your convenience.
# output Mid

# input Dear colleague, I would appreciate it if you could identify the bin for CC[C@H]1CN(C(C)c2cc3scnc3cn2)[C@H](CC)CN1c1cc(=O)n(C)c2cn(CC#N)nc12 (some centres unmarked) and reply at your convenience.
# output Mid

# input Dear colleague, I would appreciate it if you could identify the bin for CC[C@H]1CN(C(C)c2ccc3c(F)cnn3c2)[C@H](CC)CN1c1cc(=O)n(C)c2cn(CC#N)nc12 (some centres unmarked) and reply at your convenience.
# output High
